This collection of values is drawn from paper PMC3950679.

Target: T1, Cid1 WT (Schizosaccharomyces pombe, UniProt O13833 40-377)
T1 sequence: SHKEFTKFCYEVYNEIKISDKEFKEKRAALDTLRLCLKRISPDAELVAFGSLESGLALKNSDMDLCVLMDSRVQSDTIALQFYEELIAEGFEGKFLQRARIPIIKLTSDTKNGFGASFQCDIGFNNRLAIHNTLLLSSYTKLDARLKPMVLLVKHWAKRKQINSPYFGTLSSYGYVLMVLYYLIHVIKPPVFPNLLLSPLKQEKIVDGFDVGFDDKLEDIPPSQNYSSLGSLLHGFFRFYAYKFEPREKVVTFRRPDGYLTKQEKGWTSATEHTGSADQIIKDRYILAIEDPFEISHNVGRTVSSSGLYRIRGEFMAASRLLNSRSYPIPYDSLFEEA
Test: EMSA
ENDPOINT_NAME: Kd

Fill blank: measured Kd of the binder UUUUUUUUUUUUUUU (ssRNA) [U15] is ____. ~1000 nM
